System: OVCAR-8 ovarian
assay.remarks: NCI tumour cell line growth inhibition, 48 h
readout: TGI (µM)
Just the number please, in µM, no unit attached.

# compound COc1cc(C(c2ccc3c(c2)OCO3)C2SCCCS2)cc(OC)c1OC (configuration not stated) ; its TGI = 64.8

---

Test system: SNB-19 CNS
assay.remarks: NCI tumour cell line growth inhibition, 48 h
Catalogue of GI50 values

Please review the entries below; each comes with its answer.
entry.smiles: C#CCNC(=O)CC[C@@H](C)[C@H]1CC[C@H]2[C@@H]3CC[C@@H]4CC(=O)CC[C@]4(C)[C@H]3CC[C@]12C
GI50: 24300 nM
//
entry.smiles: COc1cc2c(cc1OCCCN1CCN(C(=S)SCCC(C#N)(c3ccccc3)c3ccccc3)CC1)N=C[C@@H]1CCCN1C2=O
GI50: 2190 nM
//
entry.smiles: CCCCCCCCCCCCCCCCCCOc1ccccc1COP(=O)(O)OOCC[N+](C)(C)C
GI50: 1440 nM

Next, consider the following compound.
Measured GI50 (SNB-19 CNS), entry Cc1cc(-c2cc(OC(=O)c3ccccc3)ccc2Cl)cc2nnc(Nc3ccc(OCCN4CCCC4)cc3)nc12 : 1860 nM
